target: μ-opioid receptor (Homo sapiens); test: μ-opioid receptor GTPγS functional assay, U2OS cells
Property measured: EC50 (nM)

Compound	Measurement unit	Number
COc1ccc2c(c1)[C@]1(CCO)CCN(C)[C@H](C2)[C@@H]1C [Compound 50]	nM	2390
COc1ccc2c(c1)[C@]1(CCN3CCC[C@@H]3C(=O)O)CCN(C)[C@H](C2)[C@@H]1C [Compound 60]	nM	4910
C[C@H]1[C@H]2Cc3ccc(O)cc3[C@]1(CCN1CCC(N(C3CC3)S(=O)(=O)c3ccccc3)CC1)CCN2C [Compound 7]	nM	83.1
COC(=O)c1ccc(CC(=O)NCC[C@]23CCN(CC4CC4)[C@H](Cc4ccc(OC)cc42)[C@@H]3C)cc1 [Compound 30]	nM	230
CC(C)C[C@H](NCCCC[C@]12CCN(CC3CC3)[C@H](Cc3ccc(O)cc31)[C@@H]2C)C(=O)O [Compound 24]	nM	1.94
C[C@H]1[C@H]2Cc3ccc(O)cc3[C@]1(CCOc1cncc(C(=O)O)c1)CCN2C [Compound 52]	nM	68.1
C[C@H]1[C@H]2Cc3ccc(O)cc3[C@]1(CCNC(=O)c1ccc(C(=O)O)cc1)CCN2CC1CC1 [Compound 32]	nM	2.16
COC[C@@H]1CCCN1CC[C@]12CCN(C)[C@H](Cc3ccc(OC)cc31)[C@@H]2C [Compound 56]	nM	5990
COc1ccc2c(c1)[C@@]1(CCOCc3ccccc3)CCN(C)[C@@H](C2)[C@H]1C [Compound 47]	nM	8990
COc1ccc2c(c1)[C@]1(CCNC(=O)CN)CCN(CC3CC3)[C@H](C2)[C@@H]1C [Compound 33]	nM	1170
C[C@H]1[C@H]2Cc3ccc(O)cc3[C@]1(CCNC(=O)Cc1ccc(C(=O)O)cc1)CCN2CC1CC1 [Compound 31]	nM	8.77
C[C@H]1[C@H]2Cc3ccc(O)cc3[C@]1(CCNC(=O)Nc1ccc(C(=O)O)cc1)CCN2CC1CC1 [Compound 2]	nM	1.89
COc1ccc2c(c1)[C@]1(CCOCc3ccccc3)CCN(C)[C@H](C2)[C@@H]1C [Compound 48]	nM	313
COc1ccc2c(c1)[C@]1(CCNC(=O)[C@H](C)NC(C)=O)CCN(CC3CC3)[C@H](C2)[C@@H]1C [Compound 4]	nM	522
C[C@H]1[C@H]2Cc3ccc(O)cc3[C@]1(CCCC(=O)N(C)C)CCN2CC1CCC1 [Compound 28]	nM	2.71

* * *

target: κ-opioid receptor (Homo sapiens, UniProt P41145); experiment: κ-opioid receptor [35S]GTPγS functional assay, HEK-293 or CHO cells; type: biochemical; set-up: expressed in transfected cells; host or cells: HEK-293; details: HEK-293 or CHO cells; relative to U69,593
Sequence (P41145 whole entry): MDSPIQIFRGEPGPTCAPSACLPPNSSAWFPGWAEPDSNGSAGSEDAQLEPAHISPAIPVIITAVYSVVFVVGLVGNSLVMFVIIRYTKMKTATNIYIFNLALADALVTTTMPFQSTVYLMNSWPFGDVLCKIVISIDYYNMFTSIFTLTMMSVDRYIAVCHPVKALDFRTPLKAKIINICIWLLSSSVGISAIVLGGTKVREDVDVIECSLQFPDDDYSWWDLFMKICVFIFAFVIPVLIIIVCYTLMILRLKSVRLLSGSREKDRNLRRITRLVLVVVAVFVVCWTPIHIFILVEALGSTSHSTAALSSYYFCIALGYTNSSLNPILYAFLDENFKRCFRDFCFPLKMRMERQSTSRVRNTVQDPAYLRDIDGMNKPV
Outcome: MET for Emax of at least 90%; NOT MET for anything lower.

Cpd smiles	Target of assay	Class
COC(=O)[C@H](C)NCC[C@]12CCN(CC3CC3)[C@H](Cc3ccc(OC)cc31)[C@@H]2C	κ-opioid receptor (Homo sapiens, UniProt P41145)	MET
C[C@H]1[C@H]2Cc3ccc(O)cc3[C@]1(CCCCN[C@@H](Cc1ccccc1)C(N)=O)CCN2CC1CC1	κ-opioid receptor (Homo sapiens, UniProt P41145)	MET
C[C@H]1[C@H]2Cc3ccc(O)cc3[C@]1(CCNC(=O)[C@@H]1CCCCN1)CCN2CC1CC1	κ-opioid receptor (Homo sapiens, UniProt P41145)	NOT MET
CCOC(=O)c1ccc(NC(=O)NCC[C@]23CCN(CC4CC4)[C@H](Cc4ccc(OC)cc42)[C@@H]3C)cc1	κ-opioid receptor (Homo sapiens, UniProt P41145)	NOT MET
COc1ccc2c(c1)[C@]1(CCN[C@@H](C)C(=O)O)CCN(CC3CC3)[C@H](C2)[C@@H]1C	κ-opioid receptor (Homo sapiens, UniProt P41145)	NOT MET
C[C@H]1[C@H]2Cc3ccc(O)cc3[C@]1(CCNS(C)(=O)=O)CCN2C	κ-opioid receptor (Homo sapiens, UniProt P41145)	NOT MET
COc1ccc2c(c1)[C@]1(CCNC(=O)CN)CCN(CC3CC3)[C@H](C2)[C@@H]1C	κ-opioid receptor (Homo sapiens, UniProt P41145)	MET

* * *

biological target: μ-opioid receptor (Homo sapiens, UniProt P35372); assay: μ-opioid receptor GTPγS functional assay, U2OS cells
Sequence (P35372 whole entry, species assumed): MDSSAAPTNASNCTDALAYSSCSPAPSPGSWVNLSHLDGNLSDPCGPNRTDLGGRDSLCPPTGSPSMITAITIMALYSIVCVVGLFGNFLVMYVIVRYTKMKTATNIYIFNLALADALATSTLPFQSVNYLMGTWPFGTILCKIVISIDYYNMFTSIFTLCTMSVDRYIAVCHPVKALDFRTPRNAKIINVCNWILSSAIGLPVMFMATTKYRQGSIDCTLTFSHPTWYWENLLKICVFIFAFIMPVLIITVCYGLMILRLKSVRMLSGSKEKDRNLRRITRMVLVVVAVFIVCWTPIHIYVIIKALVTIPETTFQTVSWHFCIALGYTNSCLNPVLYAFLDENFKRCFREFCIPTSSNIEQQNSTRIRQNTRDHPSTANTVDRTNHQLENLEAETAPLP
Measured log10 EC50 by item
Property measured: log10 EC50 (log10 of the value in nM)

Cpd smiles	Number
COc1ccc2c(c1)[C@]1(CCOCc3ccccc3)CCN(CC3CC3)[C@H](C2)[C@@H]1C	1.58
COc1ccc2c(c1)[C@]1(CCN(C)CCCN(C)C)CCN(C)[C@H](C2)[C@@H]1C	4.27
COC(=O)[C@H](CCCCN)NCCCC[C@]12CCN(CC3CC3)[C@H](Cc3ccc(O)cc31)[C@@H]2C	-0.29
C[C@H]1[C@H]2Cc3ccc(O)cc3[C@]1(CCCCN[C@@H](CCCCN)C(=O)O)CCN2CC1CC1	0.11
COc1ccc2c(c1)[C@]1(CCNCCCn3ccnc3)CCN(C)[C@H](C2)[C@@H]1C	4.16
COc1ccc2c(c1)[C@]1(CCNCCCN3CCCC3=O)CCN(C)[C@H](C2)[C@@H]1C	4.05
C[C@H]1[C@H]2Cc3ccc(O)cc3[C@]1(CCNS(C)(=O)=O)CCN2CC1CC1	-0.07
C[C@H]1[C@H]2Cc3ccc(O)cc3[C@]1(CCCCN[C@@H](Cc1ccccc1)C(N)=O)CCN2CC1CC1	-0.55

* * *

Emax: recorded values
target: UniProtKB P35372; experiment: cell-based; set-up: purchased Perkin Elmer, Shelton, Conn; conditions: U2OS cells; read-out: β-Arr2 μ Emax
Property measured: Emax (%)

Cpd smiles	Number
C[C@H]1[C@H]2Cc3ccc(O)cc3[C@]1(CCNC(=O)Nc1ccc(F)cc1)CCN2CC1CC1	4.38
COc1ccc2c(c1)[C@]1(CCNC(=O)[C@H](C)NC(C)=O)CCN(CC3CC3)[C@H](C2)[C@@H]1C	1.3
COC(=O)[C@H](Cc1ccccc1)NCCCC[C@]12CCN(CC3CC3)[C@H](Cc3ccc(O)cc31)[C@@H]2C	1
COC(=O)c1ccc(CC(=O)NCC[C@]23CCN(CC4CC4)[C@H](Cc4ccc(OC)cc42)[C@@H]3C)cc1	1
C[C@H]1[C@H]2Cc3ccc(O)cc3[C@]1(CCCC(=O)N(C)C)CCN2CC1CCC1	3.7
C[C@H]1[C@H]2Cc3ccc(O)cc3[C@]1(CCNC(=O)c1ccc(C(N)=O)cc1)CCN2C	11.2
C[C@H]1[C@H]2Cc3ccc(O)cc3[C@]1(CCNC(=O)Nc1cccc(F)c1)CCN2C	58.9
C[C@H]1[C@H]2Cc3ccc(O)cc3[C@]1(CCNC(=O)c1ccc(F)cc1)CCN2C	46.5
COc1ccc2c(c1)[C@]1(CCOCc3ccccc3)CCN(C)[C@H](C2)[C@@H]1C	27.7
C[C@H]1[C@H]2Cc3ccc(O)cc3[C@]1(CCN1CCN(C(c3ccc(F)cc3)c3ccc(F)cc3)CC1)CCN2C	70.7
COC(=O)[C@H](C)NCC[C@]12CCN(CC3CC3)[C@H](Cc3ccc(OC)cc31)[C@@H]2C	-0.17
C[C@H]1[C@H]2Cc3ccc(O)cc3[C@]1(CCNS(=O)(=O)c1ccc(F)cc1)CCN2C	14.7
C[C@H]1[C@H]2Cc3ccc(O)cc3[C@]1(CCNC(=O)[C@@H]1CCCCN1)CCN2CC1CC1	-1.5
C[C@H]1[C@H]2Cc3ccc(O)cc3[C@]1(CCNS(C)(=O)=O)CCN2CC1CC1	0
C[C@H]1[C@H]2Cc3ccc(O)cc3[C@]1(CCNC(=O)c1ccc(C(=O)O)cc1)CCN2CC1CC1	-1
C[C@H]1[C@H]2Cc3ccc(O)cc3[C@]1(CCNC(=O)Nc1ccc(F)cc1)CCN2C	28.9
C[C@H]1[C@H]2Cc3ccc(O)cc3[C@]1(CCN1CCS(=O)(=O)CC1)CCN2C	2.83
C[C@H]1[C@H]2Cc3ccc(O)cc3[C@]1(CCNC(=O)CCc1ccccc1)CCN2C	39.8
C[C@H]1[C@H]2Cc3ccc(O)cc3[C@]1(CCOc1cncc(C(=O)O)c1)CCN2C	6.77
C[C@H]1[C@H]2Cc3ccc(O)cc3C1(CCN[C@H]1C[C@H]3CCC[C@@H](C1)N3CC[C@@H]1CC[C@H]3C[C@@H]1C3(C)C)CCN2C	51.8
C[C@H]1[C@H]2Cc3ccc(O)cc3[C@]1(CCO)CCN2C	8.83
CCOC(=O)c1ccc(NC(=O)NCC[C@]23CCN(CC4CC4)[C@H](Cc4ccc(OC)cc42)[C@@H]3C)cc1	25.5
C[C@H]1[C@H]2Cc3ccc(O)cc3[C@]1(CC(=O)N1CCC(N(C3CC3)S(=O)(=O)c3ccc(Cl)cc3)CC1)CCN2C	7.67
C[C@H]1[C@H]2Cc3ccc(O)cc3[C@]1(CCNC(=O)Nc1ccc(C(=O)O)cc1)CCN2CC1CC1	-1.5
C[C@H]1[C@H]2Cc3ccc(O)cc3[C@]1(CCNS(=O)(=O)C1CC1)CCN2CC1CC1	-0.33
C[C@H]1[C@H]2Cc3ccc(O)cc3[C@]1(CCNC(=O)Nc1ccccc1)CCN2C	72.3
COc1ccc2c(c1)[C@]1(CCO)CCN(CC3CC3)[C@H](C2)[C@@H]1C	-1
C[C@H]1[C@H]2Cc3ccc(O)cc3[C@]1(CCNC(=O)NS(=O)(=O)c1ccc(F)cc1)CCN2C	15.9

Hello, the source for this data is patent US10130615B2, in case you need it.
